Here the recorded APTT is given for each entry.
# Species: Rattus norvegicus
# RUN_DESCRIPTION: Open TG-GATES - Regimen: Daily Repeat
# Type: toxicity, organism-based, Sprague-Dawley
# Set-up: regimen Daily Repeat, gender Male, age 6 weeks
# COND: in vivo, po, 0 mg/kg, […], tissue Blood, route gavage, dose level Control, time 7 day
Answer with a number only, understood to be in s.

# input Annotate the compound O=c1ccc2ccccc2o1 with its measured APTT.
# output 16.5

# input For CCCCC1C(=O)N(c2ccccc2)N(c2ccccc2)C1=O , write its APTT.
# output 15.7

# input Look up APTT of O=C(O)c1ccccc1Nc1ccccc1 and report it.
# output 16.2

# input Return value of APTT for input CN(C/C=C/C#CC(C)(C)C)Cc1cccc2ccccc12 , no commentary.
# output 18.7

====

Below, each of the molecules is paired with its reported Bas value.
# Species on record: Rattus norvegicus
# RUN_DESCRIPTION: Open TG-GATES - Regimen: Daily Repeat
# Type: toxicity, organism-based, Sprague-Dawley
# Parameters: regimen Daily Repeat, gender Male, age 6 weeks
# COND: in vivo, po, 100 mg/kg, […], tissue Blood, route gavage, dose level Low, time 14 day
Unit % implied. Number only.

Examples from the recorded data:
molecule=CC(=O)[C@@]1(O)CC[C@H]2[C@@H]3C=C(Cl)C4=CC(=O)CC[C@]4(C)[C@H]3CC[C@@]21C value_reported=0
molecule="CC(S)C(=O)NCC(=O)O (centres undefined)" value_reported=0
molecule="CCCCNC(=O)NS(=O)(=O)c1ccc(C)cc1 [TOLBUTAMIDE]" value_reported=0.2

Next item in the queue.
# input Let me know recorded Bas for O=C(O)c1ccccc1Nc1ccccc1 , thanks.
# output 0.8

====

A/G values by entry
# Species on record: Rattus norvegicus
# RUN_DESCRIPTION: Open TG-GATES - Regimen: Single
# Assay type: toxicity, organism-based, Sprague-Dawley
# Set-up: regimen Single, gender Male, age 6 weeks
# COND: in vivo, po, 0 mg/kg, 9 h, tissue Plasma, route gavage, dose level Control
Reply with the value as a number alone.

Reference set, count: 3
molecule="CC(=O)[C@@]1(O)CC[C@H]2[C@@H]3C=C(Cl)C4=CC(=O)CC[C@]4(C)[C@H]3CC[C@@]21C [CHLORMADINONE]" value_reported=1.3
molecule="CCCCNC(=O)NS(=O)(=O)c1ccc(C)cc1 [TOLBUTAMIDE]" value_reported=0.9
molecule=Nc1ccc(Cc2ccc(N)cc2)cc1 value_reported=0.8

# input Supply measured A/G of CCO [ALCOHOL] in your reply.
# output 2.8

# input Annotate the molecule CC(S)C(=O)NCC(=O)O (centres undefined) [TIOPRONIN] with its measured A/G.
# output 1.1

# input Supply recorded A/G for CN(C/C=C/C#CC(C)(C)C)Cc1cccc2ccccc12 [TERBINAFINE] here.
# output 1.6

# input Return value of A/G for input CN(CCOc1ccc(CC2SC(=O)NC2=O)cc1)c1ccccn1.O=C(O)/C=C\C(=O)O (centres undefined) [ROSIGLITAZONE MALEATE] , no commentary.
# output 2.4

# input Identify measured A/G corresponding to O=C(O)c1ccccc1Nc1ccccc1 [FENAMIC ACID]
# output 0.9

# input Complete the entry with A/G for O=c1ccc2ccccc2o1 [COUMARIN]
# output 2.1
